Test: refractive index (Na D-line) (dimensionless)
Settings: 298.15 K; 101.33 kPa; Liquid; Standard Abbe refractometry
EXPERIMENTAL ENDPOINT: refractive index
Number only, no unit.

{"MOLECULE": "COc1ccccc1 [anisole]", "REPORTED": 1.51554}
{"MOLECULE": "CCCOC(C)=O [propyl ethanoate]", "REPORTED": 1.38406}
{"MOLECULE": "CCOC(C)=O [ethyl acetate]", "REPORTED": 1.37244}
{"MOLECULE": "CC(=O)OC(C)C [1-methylethyl ethanoate]", "REPORTED": 1.37739}

Could you now consider this next molecule?
Data request: What refractive index value was documented for this molecule, COC(C)=O [methyl ethanoate] ?
Data returned: 1.36146

----------
Experiment: refractive index (Na D-line) (dimensionless)
Settings: 293.15 K; 93.9 kPa; Liquid; Standard Abbe refractometry
EXPERIMENTAL ENDPOINT: refractive index
Number only, no unit.

{"MOLECULE": "CCOC(C)=O [ethyl acetate]", "EXPERIMENTAL ENDPOINT": "refractive index", "REPORTED": 1.3724}

Data request: What refractive index value was documented for this molecule, COC(C)=O [methyl ethanoate] ?
Data returned: 1.3615

Data request: What refractive index value was documented for this molecule, CC(=O)OC(C)C [1-methylethyl ethanoate] ?
Data returned: 1.3774

Data request: What refractive index value was documented for this molecule, CCCOC(C)=O [propyl ethanoate] ?
Data returned: 1.3841
